Biological target: JAK2 (Homo sapiens, UniProt O60674)
Construct: made in house; host or cells: SF9 insect cells (baculovirus)
Sequence (O60674 812-1132): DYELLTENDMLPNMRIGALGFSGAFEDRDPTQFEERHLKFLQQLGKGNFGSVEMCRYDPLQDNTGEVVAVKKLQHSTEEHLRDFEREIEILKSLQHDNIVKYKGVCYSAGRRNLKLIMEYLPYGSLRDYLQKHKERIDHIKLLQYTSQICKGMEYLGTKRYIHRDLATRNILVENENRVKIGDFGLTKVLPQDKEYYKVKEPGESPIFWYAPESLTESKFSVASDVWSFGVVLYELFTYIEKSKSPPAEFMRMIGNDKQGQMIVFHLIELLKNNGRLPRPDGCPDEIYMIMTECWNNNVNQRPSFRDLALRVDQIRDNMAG
Assay: JAK2 inhibition (Table 4)
Type: biochemical
Conditions: read-out: JAK2 Ki
hey, just use true if measured Ki is less than 40 nM, otherwise false

INSERT INTO measurements (compound, group_label) VALUES
  ('O=C(Cc1nc2cnc3[nH]ccc3c2n1C1CCCOC1)N1CCC1 (racemic) [Example 967]', 'false'),
  ('CN1CCC(NC(=O)Cc2nc3cnc4[nH]ccc4c3n2C2CCCOC2)CC1 (racemic) [Example 981]', 'false'),
  ('CC(CC#N)N1CCC(n2c(C3CCC3)nc3cnc4[nH]ccc4c32)CC1 (racemic) [Example 392]', 'true'),
  ('CC(O)c1nc2cnc3[nH]ccc3c2n1C1CCN(Cc2csc(C(F)(F)F)n2)CC1 (racemic) [Example 351]', 'true'),
  ('C[C@@H](O)c1nc2cnc3[nH]ccc3c2n1C1CCN(Cc2ncco2)CC1 [Example 923]', 'false'),
  ('Cc1cc(CN2CCC(n3c(C(C)O)nc4cnc5[nH]ccc5c43)C(F)C2)no1 (centres unmarked) [Example 911]', 'true');

## Input Bench note: check whether c1ncc(CN2CCC(n3cnc4cnc5[nH]ccc5c43)CC2)cn1 [Example 52] shows Ki below 40 nM
## Output true

## Input Bench note: check whether CN(C(=O)Cc1nc2cnc3[nH]ccc3c2n1C1CCN(CCC#N)CC1)C1CCCC1 [Example 263] shows Ki below 40 nM
## Output false

## Input Bench note: check whether Cc1nc2cnc3[nH]ccc3c2n1C1CCN(C(=O)[C@@H]2CCCN2C)CC1 [Example 285] shows Ki below 40 nM
## Output false

## Input Bench note: check whether CCN1CCC(n2c(CCNC(C)=O)nc3cnc4[nH]ccc4c32)C(F)(F)C1 (centres unmarked) [Example 807] shows Ki below 40 nM
## Output true

## Input Bench note: check whether N#CCC(=O)N1CCC[C@@H](n2c(CCO)nc3cnc4[nH]ccc4c32)C1 [Example 17] shows Ki below 40 nM
## Output true

## Input Bench note: check whether CC(C)(C)OC(=O)N[C@@H]1CC[C@H](n2cnc3cnc4[nH]ccc4c32)C1 [Example 135] shows Ki below 40 nM
## Output true

## Input Bench note: check whether C[C@@H](O)c1nc2cnc3[nH]ccc3c2n1C1CCN(Cc2cnn(C)c2)CC1 [Example 818] shows Ki below 40 nM
## Output false

## Input Bench note: check whether CC(O)c1nc2cnc3[nH]ccc3c2n1C1CC2CCC1O2 (centres unmarked) [Example 906] shows Ki below 40 nM
## Output false

## Input Bench note: check whether CC(O)c1nc2cnc3[nH]ccc3c2n1C1CCN(CCC#N)CC1 (racemic) [Example 158] shows Ki below 40 nM
## Output true

## Input Bench note: check whether O=S(=O)(C1CCCC1)N1CCC(n2cnc3cnc4[nH]ccc4c32)CC1 [Example 443] shows Ki below 40 nM
## Output true

## Input Bench note: check whether CC(O)c1nc2cnc3[nH]ccc3c2n1C1CC2CCC(C1)N2 (centres unmarked) [Example 919] shows Ki below 40 nM
## Output false

Ref: patent US8461328B2
